Reported IC50 on UniProt Q9UDY8 for assorted molecules, compiled from publications.

Solved cases below.
[[record]]
compound = "Cn1nc(-c2ccccc2)c(C(F)(F)F)c1C(=O)Nc1ccnc(C(F)(F)F)c1"
observed_measurement = "< 0.5 µM"

[[record]]
compound = "O=C(Nc1ccc(C(=O)N2CC(O)C2)c(Cl)c1)c1snc(-c2ccccc2)c1C1CC1"
observed_measurement = "≤ 0.4 µM"

[[record]]
compound = "Cn1nc(-c2cccc3c2ccn3C)c(C(F)(F)F)c1C(=O)Nc1ccnc(C(F)(F)F)c1"
observed_measurement = "0.5 to 2.5 µM"

[[record]]
compound = "Cc1cc(NC(=O)c2snc([C@H]3CCOC3)c2C2CC2)ccn1"
observed_measurement = "> 2.5 µM"

[[record]]
compound = "CO[C@@H](C)c1c(Nc2ccc([C@H](N(C)C(=O)[C@H]3CC[C@H](C(=O)O)CC3)C(F)(F)F)cc2)cnc2nc(Cl)nn12"
observed_measurement = "0.1 to 1 µM"


Look up IC50 for the entries below, preserving their order.
1. Cn1nc2c(c1C(=O)Nc1cnc(-n3nccn3)c(Cl)c1)CCOc1ccccc1-2
2. O=C(Nc1cnc(-n2nccn2)c(C(F)(F)F)c1)c1cnn(-c2ccc(F)c3nccn23)c1C(F)(F)F

["> 10 µM", "0.05 µM"]
